measured-endpoint: melting point

1) O=C1CCCCCC1n1nc(-c2c(-c3ccccc3)nn3ccccc23)ccc1=O (stereo not drawn)    112 to 114 °C
2) COC(=O)[C@H]1CC[C@@H](n2nc(-c3c(-c4ccccc4)nn4ccccc34)ccc2=O)[C@H](O)C1 (relative stereo)    169 to 172 °C
3) C[C@@]1(O)CCCC[C@H]1n1nc(-c2c(-c3ccccc3)nn3ccccc23)ccc1=O (relative stereo)    197 to 198 °C
4) O=c1ccc(-c2c(-c3ccccc3)nn3ccccc23)nn1C1CCCCC1    115 to 117 °C
5) COC(=O)C[C@H]1CC[C@H](n2nc(-c3c(-c4ccccc4)nn4ccccc34)ccc2=O)C1 (relative stereo)    105 to 107 °C
6) NC(=O)CC1=C(n2nc(-c3c(-c4ccccc4)nn4ccccc34)ccc2=O)CCCC1    204 to 205 °C
7) O=c1ccc(-c2c(-c3ccccc3)nn3ccccc23)nn1[C@@H]1CCCC[C@H]1O (relative stereo)    229 to 230 °C
8) O=C(O)CN1CCCC(n2nc(-c3c(-c4ccccc4)nn4ccccc34)ccc2=O)C1=O (stereo not drawn)    145 to 150 °C
9) COC(=O)/C=C1\CCCCC1n1nc(-c2c(-c3ccccc3)nn3ccccc23)ccc1=O (stereo not drawn)    156 to 157 °C
10) CCOC(=O)[C@H]1CCC(=O)[C@@H](n2nc(-c3c(-c4ccccc4)nn4ccccc34)ccc2=O)C1 (relative stereo)    160 to 162 °C
11) COC(=O)COc1cccc2c1CCC(n1nc(-c3c(-c4ccccc4)nn4ccccc34)ccc1=O)C2=O (stereo not drawn)    175 to 176 °C
12) COC(=O)[C@@H]1CC[C@H](n2nc(-c3c(-c4ccccc4)nn4ccccc34)ccc2=O)C(=O)C1 (relative stereo)    164 to 165 °C
13) N#CC1CCCCC1n1nc(-c2c(-c3ccccc3)nn3ccccc23)ccc1=O (stereo not drawn)    214 °C
14) CNC1CCN(C(=O)CC2=C(n3nc(-c4c(-c5ccccc5)nn5ccccc45)ccc3=O)CCCC2)CC1 (hydrate or solvate)    101 to 105 °C
15) O=C(CC1=C(n2nc(-c3c(-c4ccccc4)nn4ccccc34)ccc2=O)CCCC1)N1CCNCC1    208.5 to 209 °C

====

Below, each entry is listed alongside its reported melting point.
measured-endpoint: melting point

1) CCOC(=O)C[C@@H]1CCCC[C@H]1n1nc(-c2c(-c3ccccc3)nn3ccccc23)ccc1=O (relative stereo) [Example 33(1)]    172 to 173 °C
2) O=C(O)[C@H]1CCC[C@H](n2nc(-c3c(-c4ccccc4)nn4ccccc34)ccc2=O)C1 (relative stereo) [Example 41]    218 to 222 °C
3) O=C(O)C[C@H]1CC[C@H](n2nc(-c3c(-c4ccccc4)nn4ccccc34)ccc2=O)C1 (relative stereo) [Example 40]    212 to 213 °C
4) CCOC(=O)C=C1CCC(n2nc(-c3c(-c4ccccc4)nn4ccccc34)ccc2=O)CC1 (stereo not drawn) [Example 94]    166 to 168 °C
5) O=C(O)COc1cccc2c1CCC(n1nc(-c3c(-c4ccccc4)nn4ccccc34)ccc1=O)C2=O (stereo not drawn) [Example 119]    225 to 227 °C
6) O=C1OCCC1n1nc(-c2c(-c3ccccc3)nn3ccccc23)ccc1=O (stereo not drawn) [Example 25]    179 to 180 °C

// provenance: patent US6355640B1
